Biological target: Active Human ERK2 (hERK2) (Homo sapiens (Human))
Sequence (P28482 whole entry): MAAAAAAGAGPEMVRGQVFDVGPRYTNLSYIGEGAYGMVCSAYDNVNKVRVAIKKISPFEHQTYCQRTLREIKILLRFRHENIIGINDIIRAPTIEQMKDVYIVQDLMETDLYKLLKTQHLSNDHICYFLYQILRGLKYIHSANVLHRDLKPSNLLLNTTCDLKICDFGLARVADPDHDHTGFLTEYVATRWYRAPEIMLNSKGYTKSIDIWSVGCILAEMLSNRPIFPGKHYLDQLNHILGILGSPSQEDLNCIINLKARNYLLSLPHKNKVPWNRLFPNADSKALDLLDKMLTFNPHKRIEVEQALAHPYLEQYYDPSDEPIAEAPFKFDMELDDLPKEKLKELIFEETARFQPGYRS
Assay: Active Human ERK2 (hERK2) Activity Assay (IMAP-FP)
Format: biochemical
Details: phosphorylated active hERK2, 30 μM ATP; average; read-out: ERK 2 Human average IC50
Method: Assays Active Human ERK2 (hERK2) Activity Assay: Activated ERK2 activity was determined in an IMAP-FP assay (Molecular Devices). […] The final reaction in each well of 25 μL consists of 0.5 nM hERK2, 900 nM unlabeled peptide, 80 nM labeled-peptide, and 30 μM ATP. […] Plates were read on EnVision reader after 60 minutes binding equilibration using Fluorescence Polarization protocol (Perkin Elmer).
Measured pIC50 of individual entries
Give only the number. pIC50 is defined as minus log10 of concentration in molar units.

Past entries and their recorded results:
C[C@@H](NC(=O)Nc1cc2[nH]nc(-c3cnn(C)c3)c2cn1)c1ccccc1: 9.48
COc1cccc(F)c1CN1CCC[C@@H](NC(=O)Nc2cc3[nH]nc(-c4ccnc(F)c4)c3cn2)C1: 8.97
Cc1cc(-c2n[nH]c3cc(NC(=O)NCCN4CCC(c5ccccc5)C4)ncc23)ccn1 (centres unmarked): 7.70
Cc1cc(-c2n[nH]c3cc(NC(=O)NC4(C#N)CC4)ncc23)ccn1: 7.04
Cc1cc(-c2n[nH]c3cc(NC(=O)NCc4cccc(-c5ccccc5)c4)ncc23)ccn1: 8.47

Return pIC50 (reported value) for this molecule: Cc1cc(-c2n[nH]c3cc(NC(=O)N[C@@H](C)c4ccc(F)cc4)ncc23)ccn1
9.47

Look up and report measured pIC50 for this entry: Cc1cc(-c2n[nH]c3cc(NC(=O)NCc4cccc(C)n4)ncc23)ccn1
8.71

Give a short answer stating reported pIC50 for Cc1cc(-c2n[nH]c3cc(NC(=O)NC4(CN)CCc5cc(F)ccc54)ncc23)ccn1 (centres unmarked) .
7.59
